test: Substrate activity at P-gp in MDCK2-MDR1 cells at 10 uM incubated for 60 mins in presence or absence of 2 uM P-gp inhibitor elacridar by LC-MS/MS analysis; format: ADME, cell-based, Canis lupus familiaris; conditions: dog, mdck-mdr1, 1 h
Measurement name: Activity

[
  {
    "Chemical string": "COC(=O)C1(c2ccc(-c3nc4c(=O)n(C)c(=O)nc-4n(C)n3)cc2)CC1",
    "Activity": "Not Active"
  },
  {
    "Chemical string": "Cn1nc(-c2ccccc2)nc2n(C)c(=O)nc1-2",
    "Activity": "Not Active"
  },
  {
    "Chemical string": "COc1ccc(-c2nc3c(=O)n(C)c(=O)nc-3n(C)n2)cc1",
    "Activity": "Not Active"
  },
  {
    "Chemical string": "Cn1c(=O)nc2[nH]nc(-c3ccccc3)nc-2c1=O",
    "Activity": "Not Active"
  },
  {
    "Chemical string": "Cn1nc(Cc2ccccc2)nc2c(=O)n(C)c(=O)nc1-2",
    "Activity": "Not Active"
  }
]

Let us move to another entry and its Activity.
Give me measured Activity, please, for this compound: "Cn1nc(-c2ccccc2)nc2c(=O)n(C)c(=O)nc1-2"
Not Active
